// herbicidal damage score ECHCG (10=total damage to plant; 0=no damage to plant) lookup, one value per entry
Test system: crop and representative weed species
Experiment: Example B2 herbicidal action post-emergence (Table B2)
Assay type: in vivo
Settings: ECHCG = Echinochloa crus-galli; application post-emergence; rate 500 g/ha; evaluated after 15 days; score 10 to 0
parameter: herbicidal damage score ECHCG (10=total damage to plant; 0=no damage to plant)

{"molecule": "C#CCC1c2nccnc2C(O)=C(c2c(F)ccc(Br)c2Cl)S1(=O)=O (stereo not drawn)", "reported_value": 6}
{"molecule": "C=CCC1c2nccnc2C(O)=C(c2c(F)ccc(Br)c2Cl)S1(=O)=O (stereo not drawn)", "reported_value": 2}
{"molecule": "CCCC1c2nccnc2C(O)=C(c2c(F)ccc(Br)c2Cl)S1(=O)=O (stereo not drawn)", "reported_value": 0}
{"molecule": "O=S1(=O)C(c2c(F)ccc(Br)c2Cl)=C(O)c2nccnc2C12CCCC2", "reported_value": 6}
{"molecule": "CC1(C)c2nccnc2C(O)=C(c2cc(F)ccc2Cl)S1(=O)=O", "reported_value": 4}
{"molecule": "C#CCC1(C)c2nccnc2C(O)=C(c2c(Cl)cccc2C(F)(F)F)S1(=O)=O (stereo not drawn)", "reported_value": 7}
